Assay Summary: protein stability index of a GFP-peptide fusion (yeast GPS) (PSI 1-4); higher = more stable; sorted into four equal gates, so the index is relative within each strain
Condition Description: pdr5∆
Assay Endpoint: protein stability index
Give your answer as a number; write no unit.

[Q] Reported protein stability index, sequence ELAQDPQTMEHYKQQIA [YCS4] : ____
[A] 2.65

[Q] Reported protein stability index, sequence MSAPQAKILSQAPTELE [RPS7A] : ____
[A] 2.9

[Q] Reported protein stability index, sequence HDAPRGLFPFESYKPSV [SWI3] : ____
[A] 3.08

[Q] Reported protein stability index, sequence TEVRAEDEAALAKLVST [RPL8A] : ____
[A] 2.93

[Q] Reported protein stability index, sequence KEIYYTPDPSELAAKEE [FAS2] : ____
[A] 2.75

[Q] Reported protein stability index, sequence QELAKSIRSRRPYQVNV [PRE1] : ____
[A] 2.88

[Q] Reported protein stability index, sequence VRSAEYYAKKRAFTKKV [RPL16B] : ____
[A] 2.18

[Q] Reported protein stability index, sequence KGSSLASAASEAIRDPK [SSN8] : ____
[A] 2.62

====

Assay Summary: protein stability index of a GFP-peptide fusion (yeast GPS) (PSI 1-4); higher = more stable; sorted into four equal gates, so the index is relative within each strain
Condition Description: san1∆
# maps each entry to its protein stability index

Here are 4 sequences together with their reported answers.
[Q] Reported protein stability index, sequence YLNSRIIPTTLEEQQQL [YML103C/NUP188] : ____
[A] 1.82

[Q] Reported protein stability index, sequence DTSKALLNVSVNITKFS [SKI6] : ____
[A] 2.72

[Q] Reported protein stability index, sequence LYRYRFDPFQAVSRSMT [ECM29] : ____
[A] 2.76

[Q] Reported protein stability index, sequence LDTRKELWRKEQKLQTV [SMC3] : ____
[A] 2.83

Continuing:
[Q] Reported protein stability index, sequence RKDKDAKFRLILIESRI [RPS13] : ____
[A] 1.9

[Q] Reported protein stability index, sequence GGLGLNLQTADTVIIFD [SNF2] : ____
[A] 3.34

[Q] Reported protein stability index, sequence GVYKRDNRTKSTTIKNI [SMC4] : ____
[A] 1.33

[Q] Reported protein stability index, sequence GYYVGYKATATGPKQQE [SCL1] : ____
[A] 3.02

[Q] Reported protein stability index, sequence KRYRLKESQLPRIQRAD [RPB5] : ____
[A] 3.02

[Q] Reported protein stability index, sequence QNNFHVLIDLLNWFRTT [RGR1] : ____
[A] 2.67

[Q] Reported protein stability index, sequence NTLRMKHGTYDKLDDDG [RPB2] : ____
[A] 2.83

[Q] Reported protein stability index, sequence EVVSEAINIMNRSNDAL [FAS2] : ____
[A] 3.44

[Q] Reported protein stability index, sequence LPEILNVLCVNIKSNDF [ECM29] : ____
[A] 1.37

====

# maps each entry to its protein stability index
Assay Summary: protein stability index of a GFP-peptide fusion (yeast GPS) (PSI 1-4); higher = more stable; sorted into four equal gates, so the index is relative within each strain
Condition Description: san1∆
Give your answer as a number; write no unit.

Here are 6 sequences together with their reported answers.
[Q] Reported protein stability index, sequence QGGAMNKKSEQALDISK [SRP72] : ____
[A] 3

[Q] Reported protein stability index, sequence YAVKAVENGTTSIGIKC [PRE10] : ____
[A] 1.36

[Q] Reported protein stability index, sequence LSNLHESNKRYRFFKKI [SNF12] : ____
[A] 2.9

[Q] Reported protein stability index, sequence PPDSDSSISVMGENEKP [RPT3] : ____
[A] 1.21

[Q] Reported protein stability index, sequence LLNVSVNITKFSKFERS [SKI6] : ____
[A] 2.7

[Q] Reported protein stability index, sequence RSSYMLELVNTPLTENI [YCG1] : ____
[A] 3.04

Kindly review the next sequence as well.
[Q] Reported protein stability index, sequence LPRKEVDDVLGGGWDNV [RPC11] : ____
[A] 3.26

====

Assay Summary: protein stability index of a GFP-peptide fusion (yeast GPS) (PSI 1-4); higher = more stable; sorted into four equal gates, so the index is relative within each strain
Condition Description: pdr5∆
Assay Endpoint: protein stability index
Give your answer as a number; write no unit.

[Q] Reported protein stability index, sequence RYSNLVCKKADVDLHKR [RPS18A] : ____
[A] 3.38

Continuing:
[Q] Reported protein stability index, sequence THIAESAKEIAKASGCD [MCD1] : ____
[A] 3.4

[Q] Reported protein stability index, sequence SQQNIVPNSSDQAELPN [SNF2] : ____
[A] 2.67

[Q] Reported protein stability index, sequence KTMKTFVIHIQEKNFQT [RPB5] : ____
[A] 1.85

[Q] Reported protein stability index, sequence SQCRLHELREKERISVA [PRE2] : ____
[A] 2.59

[Q] Reported protein stability index, sequence LRDDTLPKAWISLAVEG [COR1] : ____
[A] 1.9

[Q] Reported protein stability index, sequence LGNEKNQASTSKRVYKI [CDC53] : ____
[A] 2.83

[Q] Reported protein stability index, sequence AGNKVGQSEASLLNLLN [RPP0] : ____
[A] 2.25

[Q] Reported protein stability index, sequence FSFGGTQTGQNTGPSTG [YGL172W/NUP49] : ____
[A] 3.34

[Q] Reported protein stability index, sequence DLYEQIGIDPPRGVLLY [RPT3] : ____
[A] 3.02

[Q] Reported protein stability index, sequence KKLSINSAARNIQHLLY [PRE7] : ____
[A] 2.88

====

Assay Summary: protein stability index of a GFP-peptide fusion (yeast GPS) (PSI 1-4); higher = more stable; sorted into four equal gates, so the index is relative within each strain
Condition Description: doa10∆
Assay Endpoint: protein stability index
Give your answer as a number; write no unit.

[Q] Reported protein stability index, sequence TLLIAIRGSNRDLKPSN [YML103C/NUP188] : ____
[A] 1.92

[Q] Reported protein stability index, sequence PFILEYDLMAPNGHIST [YMR129W/POM152] : ____
[A] 2.94

[Q] Reported protein stability index, sequence RRDDEVLVVRGSKKGQE [RPL26A] : ____
[A] 3.63

[Q] Reported protein stability index, sequence HHIHHFEKKELQEKFLN [IRR1] : ____
[A] 1.72

[Q] Reported protein stability index, sequence TARINNRRLFKKCIDFF [RRI2] : ____
[A] 2

Continuing:
[Q] Reported protein stability index, sequence SNIITKSLVQYIELLPN [DIS3] : ____
[A] 2.64

[Q] Reported protein stability index, sequence GLSPKKVGEDIAKATKE [RPL12A] : ____
[A] 3.03

[Q] Reported protein stability index, sequence KRPPEIMSTEAHVNKVT [SIR4] : ____
[A] 2.99

====

# maps each entry to its protein stability index
Assay Summary: protein stability index of a GFP-peptide fusion (yeast GPS) (PSI 1-4); higher = more stable; sorted into four equal gates, so the index is relative within each strain
Condition Description: san1∆
Give your answer as a number; write no unit.

[Q] Reported protein stability index, sequence NVAVDIINFGEIEQNTE [RPN10] : ____
[A] 3.27

[Q] Reported protein stability index, sequence EFSEHTFVERLPNETIN [DIS3] : ____
[A] 3.36

[Q] Reported protein stability index, sequence TRVTRLSLQRANVEILA [CSL4] : ____
[A] 1.78

[Q] Reported protein stability index, sequence ELSVVLSGIIQDIYYLA [RRI2] : ____
[A] 2.02

[Q] Reported protein stability index, sequence SKNFNVILASSLNEVGT [YML103C/NUP188] : ____
[A] 2.56

[Q] Reported protein stability index, sequence SAASIPPQQTYHFPIFN [RPN4] : ____
[A] 2.52

Kindly review the next sequence as well.
[Q] Reported protein stability index, sequence MFTQIYLERIELSFYIL [YML103C/NUP188] : ____
[A] 1.36

====

# maps each entry to its protein stability index
Assay Summary: protein stability index of a GFP-peptide fusion (yeast GPS) (PSI 1-4); higher = more stable; sorted into four equal gates, so the index is relative within each strain
Condition Description: ubr1∆
Give your answer as a number; write no unit.

[Q] Reported protein stability index, sequence LLSKIMLNLIDDVKNIL [RPN6] : ____
[A] 1.22

[Q] Reported protein stability index, sequence NLTIHFGGEKGKRIREN [FAS1] : ____
[A] 3.31

[Q] Reported protein stability index, sequence QFDIQSPLYMDTETFDT [YML103C/NUP188] : ____
[A] 3.28

[Q] Reported protein stability index, sequence ETHPDNSNKQAVAILAD [BRR2] : ____
[A] 2.98

[Q] Reported protein stability index, sequence YSSILGNSFNKSSNDTI [YCG1] : ____
[A] 2.81
